Reference source for all entries: patent US20230263822A1

# conditionDetails: rat, in vivo, sc, 50 mg/kg
e = 2'-O-(2-methoxyethyl) (MOE); d = 2'-deoxy (DNA)
Would you kindly list BUN for each of these substances?
Give the value in mg/dL but do not write mg/dL after it.

Lab book: BUN of ISIS 416825: 5-10-5 MOE gapmer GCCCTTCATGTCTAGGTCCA (sugars from the 5' end e5 d10 e5, backbone and methylation of C not given here) noted as 7

Lab book: BUN of ISIS 416892: 3-14-3 MOE gapmer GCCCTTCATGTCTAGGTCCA (sugars from the 5' end e3 d14 e3, backbone and methylation of C not given here) noted as 188

Lab book: BUN of ISIS 416925: MOE gapmer, nucleobases 1275 to 1318 of SEQ ID NO: 1 (Table 8) (antisense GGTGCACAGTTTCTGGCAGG; MOE gapmer, wing and gap sizes not given here) noted as 7
